- EXPERIMENTAL CONDITIONS: [M+H]+; instrument: DT; single field, calibrated with Agilent tune mix (Agilent)
PARAMETER: collision cross section (N2)
Write the figure, then the unit, nothing else.

Look at this molecule and give its reported collision cross section (N2). CCCCCCCCCCCCC=CC[C@@H](O)[C@H](CO)NC(=O)CCCCCCCCCCCCCCCCCCCCC [Cer(40:1)] 272.3 Å²

Look at this molecule and give its reported collision cross section (N2). CCCCC/C=C\C/C=C\C/C=C\C/C=C\C/C=C\CCC(=O)O[C@H](COC(=O)CCCCCCCCCCCCC)COP(=O)([O-])OCC[N+](C)(C)C [PC(36:5)] 284.5 Å²

Look at this molecule and give its reported collision cross section (N2). CCCC/C=C\CCCCCCCC(=O)OC[C@H](COP(=O)(O)O[C@H]1C(O)C(O)C(O)[C@@H](O)C1O)OC(=O)CCCCCCCCC/C=C\CCCCCCCCCC (stereo partly specified) [PI(36:2)] 299.3 Å²

Look at this molecule and give its reported collision cross section (N2). CCCCCCCCCCCCCCCCCCCC(=O)OC[C@@H](O)COP(=O)([O-])OCC[N+](C)(C)C [LPC(20:0)] 243.9 Å²

Look at this molecule and give its reported collision cross section (N2). CCCC/C=C\CCCCCCCC(=O)OC[C@H](COP(=O)(O)OC[C@@H](O)CO)OC(=O)CCCCCCCCC/C=C\CCCCCCCCCC [PG(36:2)] 288.9 Å²

Look at this molecule and give its reported collision cross section (N2). CCCCCCCCCCCCC=CC[C@@H](O)[C@H](COP(=O)([O-])OCC[N+](C)(C)C)NC(=O)CC=CCCCCCCCCCCCCCCCCCCCC [SM(42:2)] 304.2 Å²
